Tested on: RSV-A2-GFP
ASSAY DETAILS: RSV-A2-GFP viral replication assay
Type: cell-based, Human Respiratory Syncytial Virus
RUN PARAMETERS: read-out: RSV EC50; Calu-1 cells, RSV-A2-GFP MOI=1.2, 96 hrs, GFP-expressing cells counted
# reported EC50; entries follow

Worked examples, 3 compounds total:
COMPOUND | TEST RESULT
Cn1nc(-n2cccn2)cc1C(=O)NCC(C)(O)c1cc2c(c(-c3ccc(F)cc3)n1)OCC2(C)C(N)=O (single isomer, unassigned) [Example 29-B] | > 0.1 µM
Cn1nc(-n2cccn2)cc1C(=O)NCC(O)c1cc(C(C)(C)N)cc(-c2ccc(F)cc2)n1 (single isomer, unassigned) [Example 34-B] | > 0.1 µM
Cn1nc(-c2cscn2)cc1C(=O)NCC(O)(c1cc(C(C)(C)N)cc(-c2ccc(F)cc2)n1)C(F)F (single isomer, unassigned) | 0.01 to 0.1 µM

[Q] Value lookup for EC50; key = Cc1nc(-c2ncccn2)sc1C(=O)NCC(O)(c1cc(C(C)(C)N)cc(-c2ccc(F)cc2)n1)C(F)(F)F (single isomer, unassigned) [Example 25-B]
[A] > 0.1 µM

[Q] Now give it for Cc1nc(-c2ncccn2)sc1C(=O)NCC(O)(c1cc(C(C)(C)N)cc(-c2ccc(F)cc2)n1)C1CC1 (single isomer, unassigned) [Example 22-B] too.
[A] < 0.01 µM

* * *

Known pEC50 of a selection of molecules
Test system: RSV-A2-GFP
ASSAY DETAILS: RSV-A2-GFP viral replication assay
Format: cell-based, Human Respiratory Syncytial Virus
RUN PARAMETERS: read-out: RSV EC50; Calu-1 cells, RSV-A2-GFP MOI=1.2, 96 hrs, GFP-expressing cells counted
pEC50: −log10 of the molar value.

Study these solved cases before continuing.
MOLECULE | SYSTEM TESTED | pEC50
Cn1nc(-c2cscn2)cc1C(=O)NCC(C)(O)c1cc(C2(C)CCNC2)cc(-c2ccc(F)cc2)n1 (single isomer, unassigned) [Example 27-C] | RSV-A2-GFP | > 8.00
CC(N)C(C)(C)c1cc(-c2ccc(F)cc2)nc(C(C)(O)CNC(=O)c2cc(-n3cccn3)nn2C)c1 (single isomer, unassigned) [Example 33-C] | RSV-A2-GFP | > 8.00
Cn1nc(-c2cscn2)cc1C(=O)NCC(C)(O)c1cc(C2(C)CCNC2)cc(-c2ccc(F)cc2)n1 (single isomer, unassigned) [Example 27-B] | RSV-A2-GFP | < 7.00

[Q] For Cn1nc(-c2cscn2)cc1C(=O)NCC(C)(O)c1cc2c(c(-c3ccc(F)cc3)n1)OCC2(C)N (single isomer, unassigned) [Example 28-A] , what is its reported pEC50?
[A] > 8.00

[Q] Another molecule to look at: Cn1nc(-c2cscn2)cc1C(=O)NCC(C)(O)c1cc2c(c(-c3ccc(F)cc3)n1)OCC2(C)N (single isomer, unassigned) [Example 28-B]
[A] 7.00 to 8.00

[Q] Continue with Cn1nc(-c2cscn2)cc1C(=O)NCC(C)(O)c1cc2c(c(-c3ccc(F)cc3)n1)OCC2(C)N (single isomer, unassigned) [Example 28-D]
[A] 7.00 to 8.00

[Q] Quick one: CC(N)C(C)(C)c1cc(-c2ccc(F)cc2)nc(C(C)(O)CNC(=O)c2cc(-n3cccn3)nn2C)c1 (single isomer, unassigned) [Example 33-B]
[A] < 7.00

[Q] What do you get for Cn1nc(-c2cscn2)cc1C(=O)NCC(C)(O)c1cc(C(C)(C)C(N)=O)cc(-c2ccc(F)cc2)n1 (single isomer, unassigned) [Example 31-B] ?
[A] > 8.00

* * *

System: RSV-A2-GFP
ASSAY DETAILS: RSV-A2-GFP viral replication assay
Assay type: cell-based, Human Respiratory Syncytial Virus
RUN PARAMETERS: read-out: RSV EC50; Calu-1 cells, RSV-A2-GFP MOI=1.2, 96 hrs, GFP-expressing cells counted
pEC50: −log10 of the molar value.
# pEC50 listing for each entry below

[Q] // pEC50 lookup, key: CCOc1cc(C(=O)NCC(C)(O)c2cc(C(C)(C)N)cc(-c3ccc(F)cc3)n2)n(C)n1 (single isomer, unassigned) [Example 01-B]
[A] > 8.00

[Q] Now consider Cn1nc(-c2cscn2)cc1C(=O)NCC(C)(O)c1cc2c(c(-c3ccc(F)cc3)n1)OCC2(C)N (single isomer, unassigned) [Example 28-C] and answer again.
[A] < 7.00

[Q] Cool, now Cn1nc(-c2cscn2)cc1C(=O)NCC(C)(O)c1cc(C(C)(C)C(N)=O)cc(-c2ccc(F)cc2)n1 (single isomer, unassigned) [Example 31-A]
[A] < 7.00

[Q] Can you check Cn1nc(-c2cscn2)cc1C(=O)NCC(C)(O)c1cc(C(C)(C)O)cc(-c2ccc(F)cc2)n1 (single isomer, unassigned) [Example 32-B] next?
[A] > 8.00

[Q] # repeat for CC(N)C(C)(C)c1cc(-c2ccc(F)cc2)nc(C(C)(O)CNC(=O)c2cc(-n3cccn3)nn2C)c1 (single isomer, unassigned) [Example 33-A]
[A] < 7.00

[Q] Could you do the same for Cn1nc(-n2cccn2)cc1C(=O)NCC(O)c1cc(C(C)(C)N)cc(-c2ccc(F)cc2)n1 (single isomer, unassigned) [Example 34-A] , please?
[A] > 8.00

[Q] One more compound: Cn1nc(-c2cscn2)cc1C(=O)NCC(C)(O)c1cc(C2(C)CCNC2)cc(-c2ccc(F)cc2)n1 (single isomer, unassigned) [Example 27-D]
[A] > 8.00

[Q] Request: Cn1nc(-n2cccn2)cc1C(=O)NCC(C)(O)c1cc2c(c(-c3ccc(F)cc3)n1)OCC2(C)C(N)=O (single isomer, unassigned) [Example 29-A]
[A] 7.00 to 8.00

[Q] Now the same for CCOc1cc(C(=O)NCC(C)(O)c2cc(C(C)(C)N)cc(-c3ccc(F)cc3)n2)n(C)n1 (single isomer, unassigned) [Example 01-A]
[A] < 7.00

[Q] Here is the next compound: Cc1nc(-c2ncccn2)sc1C(=O)NCC(O)(c1cc(C(C)(C)N)cc(-c2ccc(F)cc2)n1)C(F)(F)F (single isomer, unassigned) [Example 25-A]
[A] 7.00 to 8.00

[Q] Same thing, different compound: Cn1nc(-c2cscn2)cc1C(=O)NCC(C)(O)c1cc(C2(C)CCNC2)cc(-c2ccc(F)cc2)n1 (single isomer, unassigned) [Example 27-A]
[A] < 7.00

[Q] Ok, now Cc1nc(-c2ncccn2)sc1C(=O)NCC(O)(c1cc(C(C)(C)N)cc(-c2ccc(F)cc2)n1)C1CC1 (single isomer, unassigned) [Example 22-A]
[A] < 7.00

[Q] And what about the compound Cn1nc(-n2cccn2)cc1C(=O)NCC(C)(O)c1cc2c(c(-c3ccc(F)cc3)n1)OCC2(C)C(N)=O (single isomer, unassigned) [Example 29-D] ?
[A] 7.00 to 8.00

* * *

System: RSV-A2-GFP
ASSAY DETAILS: RSV-A2-GFP viral replication assay
Assay type: cell-based, Human Respiratory Syncytial Virus
RUN PARAMETERS: read-out: RSV EC50; Calu-1 cells, RSV-A2-GFP MOI=1.2, 96 hrs, GFP-expressing cells counted
Recorded measurements of EC50, one per entry

COMPOUND | ASSAY READOUT | TEST RESULT
Cn1nc(-c2cscn2)cc1C(=O)NCC(C)(O)c1cc(C(C)(C)O)cc(-c2ccc(F)cc2)n1 (single isomer, unassigned) [Example 32-A] | EC50 | > 100 nM

[Q] Dear colleague, I am looking for the recorded EC50 of the following compound: CC(N)C(C)(C)c1cc(-c2ccc(F)cc2)nc(C(C)(O)CNC(=O)c2cc(-n3cccn3)nn2C)c1 (single isomer, unassigned) [Example 33-D]
[A] < 10 nM

[Q] Proceed to CCC(O)(CNC(=O)c1cc(-c2cscn2)nn1C)c1cc(C(C)(C)N)cc(-c2ccc(F)cc2)n1 (single isomer, unassigned)
[A] 10 to 100 nM

[Q] Moving on to the next compound: Cn1nc(-n2cccn2)cc1C(=O)NCC(C)(O)c1cc2c(c(-c3ccc(F)cc3)n1)OCC2(C)C(N)=O (single isomer, unassigned) [Example 29-C]
[A] < 10 nM
